B1: TCAP (parent)
chain: YQRVLPLPIFTPAKMGATKEERED

variants of: B1; assay: protein stability index of a GFP-peptide fusion (GPS, HEK-293T) (PSI 1-6); higher = more stable; conditions: c terminus: a fixed tail appended;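 further: lentivirally expressed fusions sorted by FACS into six bins by GFP to DsRed ratio, PSI derived from sequencing read proportions per bin multiplied by bin number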
If the reported protein stability index equals or exceeds 2, assign met. If not, assign not met.

var: E21K
categoryLabel: met

var: I9A
categoryLabel: met

var: Y1R
categoryLabel: met

var: V4D
categoryLabel: not met

var: K19P
categoryLabel: met

var: Y1M
categoryLabel: met

var: A17G
categoryLabel: not met

var: K14Q
categoryLabel: met

var: E23H
categoryLabel: met

var: F10K
categoryLabel: met

var: T11A
categoryLabel: not met

var: K14C
categoryLabel: not met

var: E23F
categoryLabel: not met

var: A13S
categoryLabel: met

var: Y1W
categoryLabel: met

var: P6M
categoryLabel: not met

var: T18L
categoryLabel: met

var: P12I
categoryLabel: met

var: R3A
categoryLabel: met

var: R3C
categoryLabel: met

var: D24M
categoryLabel: not met

var: I9E
categoryLabel: met

var: P8T
categoryLabel: met

var: A17T
categoryLabel: not met

var: R22Y
categoryLabel: not met

var: R3G
categoryLabel: met

var: A17N
categoryLabel: met

var: R22G
categoryLabel: met

var: G16F
categoryLabel: met

var: P8R
categoryLabel: not met

var: F10A
categoryLabel: met

var: L5I
categoryLabel: not met

var: T11D
categoryLabel: met

var: T11E
categoryLabel: met

var: P12V
categoryLabel: met

var: L7V
categoryLabel: met

var: A17H
categoryLabel: met
